Test system: SW-620
Test Description: NCI tumour cell line growth inhibition, 48 h
Activity calls are given as the source filed them. No stated cut-off is given here; in the data, active = GI50 up to about 1.1 µM and inactive = higher.
Hello, when you answer, please use one of the following outcomes: yes (1) (active), no (0) (inactive)

Below are worked cases with known answers.
>>> label_class("C#CCSc1nc(N)c2ncn(C3OC(CO)C(O)C3O)c2n1 (centres undefined)")
"no (0)"
>>> label_class("C[N+](C)(C)CCC(=O)N1C/C(=C\\c2ccccc2)C(=O)/C(=C/c2ccccc2)C1")
"yes (1)"

Q: What classification did COc1ccc(C2CCC(Cl)(OC)CC2C=O)cc1 (centres undefined) end up with in this test?
A: no (0)

Q: What classification did COc1ccccc1/C=C1\CCC(CCN2CCOCC2)C1=O (centres undefined) end up with in this test?
A: no (0)

Q: What classification did Cc1c(-c2nc(N)nc(C3CC3)c2C)nc(N)nc1C1CC1 end up with in this test?
A: no (0)

Q: What classification did Nc1cccc(-c2cc(O)c3cc4c(cc3n2)OCO4)c1 end up with in this test?
A: yes (1)

Q: What classification did CN(C)c1ccc2c(SCC(=O)OCC(=O)[C@@]3(O)CC[C@H]4[C@@H]5CCC6=CC(=O)C=C[C@]6(C)[C@H]5C(=O)C[C@@]43C)c3ccc(N(C)C)cc3nc2c1 end up with in this test?
A: no (0)

Q: What classification did Cc1ccc([N+](=O)[O-])cc1S(=O)(=O)Nc1ccc(C2=NNC(c3ccccc3)C2)cc1 (centres undefined) end up with in this test?
A: no (0)

###

Give GI50 for every item shown.
Tested on: K562
Test Description: NCI tumour cell line growth inhibition, 48 h
The source made the active and inactive calls. Cut-off read from the data, not from the text of the source: active = GI50 up to about 1.1 µM and inactive = higher.

Worked set:
>>> reading("CN1CCS(=O)(=O)NC(Cc2ccccc2)C(=O)N2CCCC2C1=O (stereo not drawn)")
"> 100 µM (inactive)"
>>> reading("Cc1cc2c(C(C)C)c(O)c(O)c(/C=N/c3cc(C(F)(F)F)ccc3Cl)c2c(O)c1-c1c(C)cc2c(C(C)C)c(O)c(O)c(/C=N/c3cc(C(F)(F)F)ccc3Cl)c2c1O")
"39.4 µM (inactive)"
>>> reading("CCCCCCC(C)c1ccc2c(c1)C(=O)c1nc3ccncc3c(=O)n1-2 (stereo not drawn)")
"0.419 µM (active)"

Give GI50 for each of the items listed below.
1. NCC(O)CSCc1ccc(Cl)cc1 (stereo not drawn)
2. N#Cc1nc(Cc2ccccc2)oc1N
3. COc1cc2c(cc1OC)C(Cc1c3ccccc3cc3ccccc13)N(C)CC2 (stereo not drawn)

A:
1: > 100 µM (inactive); 2: 42.1 µM (inactive); 3: 12.5 µM (inactive)

###

Test system: KM12
Test Description: NCI tumour cell line growth inhibition, 48 h
Calls of active or inactive are those of the source. Cut-off read from the data, not from the text of the source: active = GI50 up to about 1.1 µM and inactive = higher.
Give GI50 for every item shown.

Worked set:
>>> reading("CCCCOC(=O)CNC(=O)OCCCCC#CC#CCCCCOC(=O)NCC(=O)OCCCC")
"> 100 µM (inactive)"
>>> reading("CCC1CC2CN3CCc4c([nH]c5c(-c6c(OC)ccc7c8c([nH]c67)[C@]6(C(=O)OC)CC7CC(CC)C6N(CC8)C7)c(O)ccc45)[C@](C(=O)OC)(C2)C13 (stereo partly drawn)")
"12.4 µM (inactive)"

Alright, here's another compound for you.
Q: Identify the reported GI50 for the following entry. CCOc1cc(C(=O)O)c2c(ccc3ccc(OC)c(OC)c32)c1OC
A: > 100 µM (inactive)

###

Test system: OVCAR-4
Test Description: NCI tumour cell line growth inhibition, 48 h
Active and inactive are the calls of the source. Cut-off read from the data, not from the text of the source: active = GI50 up to about 1.1 µM and inactive = higher. Numbered stars: 1 amine (or outer) side, 2 acyl side, 3 side chain; on linkers, the order of the positions; unused ones are H or OH. Square brackets hold non-standard residues; d marks the D form. Peptide text beside a SMILES is read from it. X55 = CC[C@H](C)[C@H](OC(=O)[C@@H](C)[C@@H](CC)N[*:1])C(=O)[*:2]; X31 = C[C@H](N[*:1])C(=O)C(C)(C)C(=O)[*:2]; NMeY = CN[C@@H](Cc1ccc(O)cc1)C(=O)O; NMeL = CN[C@@H](CC(C)C)C(=O)O; NMeV = CN[C@H](C(=O)O)C(C)C
Give GI50 for every item shown.

>>> reading("O=C(c1c(O)cc(O)cc1O)C1Cc2ccccc21 (stereo not drawn)")
"30.4 µM (inactive)"
>>> reading("CCN(Cc1cc(Cl)cc(C)c1O)Cc1c(O)ccc2ccccc12")
"17.1 µM (inactive)"
>>> reading("CCN(CC)CCN1C(=O)C(=O)N(c2cccc3ccccc23)C1=O")
"> 10 µM (inactive)"
>>> reading("CC1C=C(NCC2(CO)CCC2)N=C(N)N1 (stereo not drawn)")
"> 100 µM (inactive)"

Give GI50 for each of the items listed below.
1. C[n+]1ccccc1/C=C/c1ccc2c(c1)OCO2
2. O=C(N/N=C/c1ccc(Cl)cc1)c1cc(I)cc(I)c1O
3. O=[N+]([O-])/C(Cl)=C(/C(Cl)=C(Cl)Cl)N1CCOCC1
4. COc1ccc(OC)c2cc(Cc3ccc(N(C)C)cc3)c(=O)c(Cc3ccc(N(C)C)cc3)cc12
5. CC1=NN(c2ccccc2Cl)C2(C1)C(Cl)C(=O)N2c1nc2ccccc2s1 (stereo not drawn)
6. NCC(O)CSCc1ccc(Cl)cc1 (stereo not drawn)

A:
1: > 10 µM (inactive); 2: > 100 µM (inactive); 3: 5.51 µM (inactive); 4: > 100 µM (inactive); 5: > 100 µM (inactive); 6: > 100 µM (inactive)

Give GI50 for each of the items listed below.
1. CCOC(=O)Cc1csc(N/C=C2/C(=O)Oc3ccccc3C2=O)n1
2. Cc1ccc(S(=O)(=O)C(CC(=O)N2CCCC2)C(=O)c2ccccc2)cc1 (stereo not drawn)
3. O=S(=O)(O)/C(=N\c1cccc(Cc2ccccc2)c1)Nc1cccc(Cc2ccccc2)c1
4. CC(C)(C)c1ccc2c(c1)C#Cc1cc(C(C)(C)C)ccc1OCCCO2
5. CNC1NC(=O)c2ccccc2N1Cc1ccc(F)cc1 (stereo not drawn)

A:
1: 31.7 µM (inactive); 2: > 100 µM (inactive); 3: 19.5 µM (inactive); 4: > 100 µM (inactive); 5: > 100 µM (inactive)

Give GI50 for each of the items listed below.
1. Cc1oc2nc(N(C)C)n3c(C)nnc3c2c1C
2. Cc1ccc([N+](=O)[O-])cc1S(=O)(=O)Nc1ccc(C2=NNC(c3ccccc3)C2)cc1 (stereo not drawn)
3. CCCCCCCCCCCC(=O)C1=C(O)CC(O)CC1=O (stereo not drawn)
4. O=C1c2ccccc2C(=O)c2c(NCC3CO3)cccc21 (stereo not drawn)
5. Cc1ccccc1C(=N)c1ccccc1Cc1cccc2ccccc12
6. C[N+](C)(C)/C=N\c1cccc2nsnc12
7. CC[C@H](C)[C@@H]1OC(=O)[C@@H](C)[C@@H](CC)NC(=O)[C@H](C)NC(=O)C(C)(C)C(=O)[C@H](C)NC(=O)[C@H](Cc2ccc(OC)cc2)N(C)C(=O)[C@H](C(C)C)N(C)C(=O)CNC(=O)[C@H](CC(C)C)N(C)C(=O)CNC1=O [DOLASTATIN 11] (cyclo(A[X55]G[NMeL]G[NMeV][NMeY](Me)[X31]))
8. COc1ccc(-c2cc(=O)c3ccc(O)cc3o2)c(OC)c1OC

A:
> 100 µM (inactive)
14.5 µM (inactive)
> 100 µM (inactive)
> 86.1 µM (inactive)
28.4 µM (inactive)
> 100 µM (inactive)
0.0507 µM (active)
88.7 µM (inactive)

Give GI50 for each of the items listed below.
1. COc1ccc(-c2c(C#N)c(NC(=S)NC(=O)c3ccccc3)nc3c2CCCC3)cc1OC
2. O=C1CCC2(c3ccc(Cl)cc3)Nc3ncccc3N12 (stereo not drawn)
3. CC(=O)OC[C@@]1(C)[C@@H]2[C@@H]3[C@@]4(CO[C@]3(C)C(=O)[C@@]3(O)C[C@H](C)[C@H](OC(C)=O)[C@@H]3[C@H]4OC(C)=O)[C@H](OC(=O)c3ccccc3)C[C@@H]21
4. CCN(CC)c1ccc(C(=O)c2ccccc2C(=O)O)c(O)c1
5. CCOC(=O)/C=C(/C)Nc1nc2c(c(C(=O)OC)c1C#N)CCCC2
6. CCOC(=O)C#Cc1ccc([N+](=O)[O-])cc1
7. CN1CCN(Cn2nc(COc3ccc(Cl)cc3)n(/N=C/c3ccc(-c4ccc(Cl)cc4Cl)o3)c2=S)CC1

A:
45.4 µM (inactive)
> 100 µM (inactive)
> 100 µM (inactive)
> 100 µM (inactive)
44.7 µM (inactive)
11.2 µM (inactive)
3.05 µM (inactive)

###

Give GI50 for every item shown.
Test system: HCT-15

>>> reading("O=C1N=C2SC=C(NC(=S)Nc3ccccc3)N2NC12c1ccccc1-c1ccccc12")
"> 10 µM"
>>> reading("CCC1C(=O)C(O)[C@H]2[C@@H]3C(O)CC4=CC(=O)CC[C@]4(C)[C@H]3CC[C@]12C (some centres not stated)")
"> 50 µM"
>>> reading("O=C(CSc1nnc(Cc2ccccc2)o1)Nc1ccccc1")
"> 100 µM"
>>> reading("CN(C)C(CN)CC1=C(CC(CN)N(C)C)CCC1 (configuration not stated)")
"> 100 µM"
>>> reading("COc1ccc2c3c1C(=O)CCCC3CO2 (configuration not stated)")
"> 100 µM"

Give GI50 for each of the items listed below.
1. COC(=O)Cc1ccc2c(cnn2-c2ccccc2)c1OC
2. O=C1CCC2(c3ccc(Cl)cc3)Nc3ncccc3N12 (configuration not stated)
3. O=C1Cc2ccccc2CCc2ccccc21

A:
1: > 10 µM; 2: > 100 µM; 3: > 100 µM

Give GI50 for each of the items listed below.
1. Cc1cc(NS(=O)(=O)c2ccc(NC(=O)c3cccc4c(Nc5ccc(S(=O)(=O)Nc6cc(C)on6)cc5)c5ccccc5nc34)cc2)no1
2. COC1(OC)N=C(N)C2(C#N)C(c3ccccc3)NC3=C(CCC3)C12C#N (configuration not stated)
3. COC(=O)/C(C#N)=C(\Nc1ccccc1)N1CCCCC1
4. CCOC(=O)C1=CC(C)(C(=O)OCC)Nc2c(nc(OC)n(C)c2=O)N1 (configuration not stated)
5. O=C(Nc1nccs1)c1cc(C2=CC=CC([N+](=O)[O-])C=C2)nc(S)n1 (configuration not stated)
6. O=c1[nH][nH]c(=O)n1/N=C/c1ccccc1

A:
1. > 100 µM
2. > 100 µM
3. > 100 µM
4. > 10 µM
5. > 100 µM
6. > 100 µM

Give GI50 for each of the items listed below.
1. CC(=O)OCC1OC(OCC2OC(N3C(=S)N[C@H]([C@@H](O)[C@H](O)[C@H](O)CO)[C@H]3O)C(OC(C)=O)C(OC(C)=O)C2OC(C)=O)C(OC(C)=O)C(OC(C)=O)C1OC(C)=O (some centres not stated)
2. Cc1c(NC(=S)Nc2ccc([N+](=O)[O-])cc2)c(=O)n(-c2ccccc2)n1C
3. Cc1c(-c2nc(N)nc(C3CC3)c2C)nc(N)nc1C1CC1

A:
1. > 100 µM
2. > 100 µM
3. > 100 µM
